Item-by-item account of activation at 10 µM
System: IRE1-XBP1s (XBP1-RLuc splicing reporter in HEK293 T-REx cells)
Assay: IRE1-XBP1s activation assay (XBP1-RLuc splicing reporter, HEK293 T-REx cells, luminescence relative to thapsigargin)
Type: cell-based
Conditions: 18 h, compound 10 μM, HEK293 T-REx XBP1-RLuc reporter cells, relative to thapsigargin (Tg) 500 nM, read-out: Activity (IRE1-XBP1s activation, luminescence as % signal relative to thapsigargin, % Tg)

// known answers, use as guide
INSERT INTO measurements (compound, result_value) VALUES
  ('COc1cccc(OCCN(C)C(=O)Cn2cc(NC(=O)CCOc3ccc(C)cc3F)cn2)c1 [Compound 74]', '< 30%'),
  ('COc1ccccc1OCCC(=O)Nc1cnn(CC(=O)N(C)CCOc2ccc(C)cc2)c1 [Compound 28]', '> 50%');

Req: I am curious: what activation at 10 µM value has been reported for Cc1ccc(OCCN(C)C(=O)Cn2cc(NC(=O)CCNc3nc(C)ncc3C(C)C)cn2)cc1 [Compound 210] ?
Resp: > 50%

Req: Given the entry Cc1ccc(OCCN(C)C(=O)Cn2cc(NC(=O)CCOc3cncc(N)c3)cn2)cc1 [Compound 235] , report its measured activation at 10 µM.
Resp: < 30%

Req: activation at 10 µM for Cc1ccc(OCCN(C)C(=O)Cn2cc(NC(=O)CCOc3c(F)cncc3Br)cn2)cc1 [Compound 97] ?
Resp: < 30%

Req: What measured activation at 10 µM goes with Cc1ccc(OCCN(C)C(=O)Cn2cc(NC(=O)CCN(C(=O)OC(C)(C)C)c3ccccc3)cn2)cc1 [Compound 23] ?
Resp: < 30%

Req: Returns the measured activation at 10 µM for the input compound. Input: Cc1ccc(OCCN(C)C(=O)Cn2cc(NC(=O)CCOc3ccnc(N)c3)cn2)cc1 [Compound 104]
Resp: > 50%

Req: Given the compound COc1cc(C)ccc1OCCN(C)C(=O)Cn1cc(NC(=O)CCNc2ncccn2)cn1 [Compound 284] , what is its reported activation at 10 µM?
Resp: < 30%
